Entry source: patent US4663457A

Test system: Klebsiella pneumoniae MGH-2
metricName: MIC (µg/mL)
Numbers only, in µg/mL.

O=C(O)c1cn(C2CC2)c2nc(N3CCNCC3)c(F)cc2c1=O | 0.1

# input Fill in: MIC of O=C(O)c1cn(C2CC2)c2c(F)c(N3CCC(O)C3)c(F)cc2c1=O (stereo not shown) is ___
# output 0.05

* * *

Could you please report measured MIC for the items listed next?
Tested on: Proteus rettgeri M 1771
Numbers only, in µg/mL.

Here are 2 compounds together with their reported answers.
O=C(O)c1cn(C2CC2)c2c(F)c(N3CCC(O)C3)c(F)cc2c1=O (stereo not shown) | 0.2
O=C(O)c1cn(C2CC2)c2nc(N3CCNCC3)c(F)cc2c1=O | 0.2

Now consider a different compound.
# input Fill in: MIC of `CN1CCN(c2nc3c(cc2F)c(=O)c(C(=O)O)cn3C2CC2)CC1` is ___
# output 0.4
